Target: Glucocorticoid receptor (Homo sapiens, UniProt P04150)
Sequence (P04150 whole entry): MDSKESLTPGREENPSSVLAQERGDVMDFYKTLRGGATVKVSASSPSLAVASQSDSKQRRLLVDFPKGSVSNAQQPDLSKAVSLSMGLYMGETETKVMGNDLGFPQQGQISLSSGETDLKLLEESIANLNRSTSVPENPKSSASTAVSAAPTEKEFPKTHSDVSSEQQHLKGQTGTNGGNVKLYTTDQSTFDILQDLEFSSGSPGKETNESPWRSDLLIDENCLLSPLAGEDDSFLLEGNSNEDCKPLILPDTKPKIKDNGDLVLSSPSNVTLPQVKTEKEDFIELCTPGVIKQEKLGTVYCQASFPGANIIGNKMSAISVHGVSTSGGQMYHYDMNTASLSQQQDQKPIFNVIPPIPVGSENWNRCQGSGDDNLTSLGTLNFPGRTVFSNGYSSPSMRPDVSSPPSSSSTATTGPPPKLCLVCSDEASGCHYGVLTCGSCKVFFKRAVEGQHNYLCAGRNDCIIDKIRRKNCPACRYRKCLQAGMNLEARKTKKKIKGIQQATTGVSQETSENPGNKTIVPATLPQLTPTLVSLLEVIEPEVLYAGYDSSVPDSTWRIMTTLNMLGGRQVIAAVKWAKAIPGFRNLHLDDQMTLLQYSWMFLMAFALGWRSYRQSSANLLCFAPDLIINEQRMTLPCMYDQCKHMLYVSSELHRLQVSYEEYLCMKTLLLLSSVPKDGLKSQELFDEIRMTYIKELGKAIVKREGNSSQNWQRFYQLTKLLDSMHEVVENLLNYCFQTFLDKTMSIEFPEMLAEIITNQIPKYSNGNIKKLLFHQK
Experiment: Transrepression activity at glucocorticoid receptor in human H292 cells assessed as inhibition of TNF-induced IL8 production
Format: cell-based
Parameter class (string): assigned from measured IC50. Ranges: lower = under 2 nM, middle = from 2 nM up to 7 nM, upper = 7 nM and over

Prompt: Any idea which band C[C@]12Cc3cnn(-c4ccc(F)cc4)c3C=C1CC[C@@H]1[C@@H]2[C@@H](O)C[C@@]2(C)[C@H]1CC[C@]2(O)C(=O)COc1cnc2ccccc2n1 is in?
Completion: lower

Prompt: Category of C[C@]12Cc3cnn(-c4ccc(F)cc4)c3C=C1CC[C@@H]1[C@@H]2[C@@H](O)C[C@@]2(C)[C@H]1CC[C@]2(O)C(=O)COc1ccc2ccccc2n1 :
Completion: lower

Prompt: Please indicate the class for C[C@]12CCC(=O)C=C1CC[C@@H]1[C@@H]2[C@@H](O)C[C@@]2(C)[C@H]1CC[C@]2(O)C(=O)CSc1ccc(Cl)c(Cl)c1 based on its IC50.
Completion: upper

Prompt: Entry C[C@]12Cc3cnn(C4CCCCC4)c3C=C1CC[C@@H]1[C@@H]2[C@@H](O)C[C@@]2(C)[C@H]1CC[C@]2(O)C(=O)CSc1ccccn1 belongs to which category?
Completion: middle

Prompt: Class (by measured IC50) for C=CCn1c(SCC(=O)[C@@]2(O)CC[C@H]3[C@@H]4CCC5=Cc6c(cnn6-c6ccccc6)C[C@]5(C)[C@H]4[C@@H](O)C[C@@]32C)nc2ccccc21
Completion: middle

Prompt: Which of the defined bands does the recorded IC50 of Cn1c(SCC(=O)[C@@]2(O)CC[C@H]3[C@@H]4CCC5=Cc6c(cnn6-c6ccccc6)C[C@]5(C)[C@H]4[C@@H](O)C[C@@]32C)nc2ccccc21 sit within?
Completion: middle

Prompt: Into which bin does this compound go? C[C@]12Cc3cnn(-c4ccccc4)c3C=C1CC[C@@H]1[C@@H]2[C@@H](O)C[C@@]2(C)[C@H]1CC[C@]2(O)C(=O)CSc1nc2ncccc2o1
Completion: lower

Prompt: Tag the class for C[C@]12Cc3cnn(C4CCCCC4)c3C=C1CC[C@@H]1[C@@H]2[C@@H](O)C[C@@]2(C)[C@H]1CC[C@]2(O)C(=O)CSc1ncccn1
Completion: upper

Prompt: Dear colleague, I would appreciate it if you could identify the bin for Cn1c(SCC(=O)[C@@]2(O)CC[C@H]3[C@@H]4CCC5=Cc6c(cnn6C6CCCCC6)C[C@]5(C)[C@H]4[C@@H](O)C[C@@]32C)nc2ccccc21 and reply at your convenience.
Completion: middle

Prompt: Lab log: Cn1c(SCC(=O)[C@@]2(O)CC[C@H]3[C@@H]4CCC5=Cc6c(cnn6-c6ccc(F)cc6)C[C@]5(C)[C@H]4[C@@H](O)C[C@@]32C)nc2ccccc21 — assign IC50 category
Completion: lower

====

Test: AUC in po dosed rat
Type: ADME, organism-based
Conditions: plasma
measured_attribute: AUC (ng·h/mL)
Report the value in ng·h/mL with no unit label.

Prompt: What value of AUC has been recorded for this entry: C[C@]12Cc3cnn(-c4ccc(F)cc4)c3C=C1CC[C@@H]1[C@@H]2[C@@H](O)C[C@@]2(C)[C@H]1CC[C@]2(O)C(=O)CSc1nc2ncccc2o1
Completion: 1630

Prompt: Given the entry C[C@]12C=CC(=O)C=C1CC[C@@H]1[C@@H]2[C@@H](O)C[C@@]2(C)[C@H]1CC[C@]2(O)C(=O)CO , report its measured AUC.
Completion: 1250

Prompt: Using the record for C[C@]12Cc3cnn(-c4ccc(F)cc4)c3C=C1CC[C@@H]1[C@@H]2[C@@H](O)C[C@@]2(C)[C@H]1CC[C@]2(O)C(=O)CO , report its AUC.
Completion: 1040

Prompt: What value of measured AUC is listed for C[C@]12Cc3cnn(-c4ccccc4)c3C=C1CC[C@@H]1[C@@H]2[C@@H](O)C[C@@]2(C)[C@H]1CC[C@]2(O)C(=O)CSc1cnc2ccccc2n1 ?
Completion: 64

Prompt: Given the compound Cn1c(SCC(=O)[C@@]2(O)CC[C@@]3(C)[C@@H]4CCC5=CC(=O)CC[C@]5(C)[C@H]4[C@@H](O)C[C@@]32C)nc2ccccc21 , what is its reported AUC?
Completion: 150

Prompt: Entry under review: C[C@]12Cc3cnn(-c4ccccc4)c3C=C1CC[C@@H]1[C@@H]2[C@@H](O)C[C@@]2(C)[C@H]1CC[C@]2(O)C(=O)CSc1nc2ncccc2o1 . Reported AUC?
Completion: 2030

Prompt: Which value of AUC has been reported for C[C@]12Cc3cnn(-c4ccccc4)c3C=C1CC[C@@H]1[C@@H]2[C@@H](O)C[C@@]2(C)[C@H]1CC[C@]2(O)C(=O)CO in the records?
Completion: 2480

Prompt: Param item = C[C@]12CCC(=O)C=C1CC[C@@H]1[C@@H]2[C@@H](O)C[C@@]2(C)[C@H]1CC[C@]2(O)C(=O)CSc1cnc2ccccc2n1 ; retrieve measured AUC.
Completion: 274

Source: ChEMBL document CHEMBL2021850
